Reported inhibition at 1500 g/ha values for a set of compounds
- Test system: Amaranthus retroflexus
- assayMethodText: Herbicidal activity against Amaranthus retroflexus assessed as herbicidal damage at 1.5 kg/ha measured after preemergence treatment
- Type: functional
- assaySetup: pre-emergence
Returns: string containing the number followed by the unit.

Previously resolved entries follow.
- CCOCCOC(=O)/C(C#N)=C(/NCc1ccco1)SC: 10.5%
- CCOCCOC(=O)/C(C#N)=C(/CC)NCC1CCCO1 (stereo not drawn): 8.4%

Input line: Param readout= inhibition at 1500 g/ha; system= Amaranthus retroflexus; entry= CCOCCOC(=O)/C(C#N)=C(/NCc1ccoc1)SC ; returns value.
Output line: 8.4%

src = ChEMBL document CHEMBL3046176
